- Experiment description: small-molecule microarray binders of probe aCHRDL2, primary screen, biochemical, biotinylated probe, 635/667 nm fluorescence (AID 1100)
- Settings: higher = more signal
Binary call on composite z-score: satisfied from 0.3 upward, not satisfied beneath that.

Q) composite z-score >= 0.3 for CCCC#C[Si](O[C@H](CC)c1cn(Cc2cccc(Cl)c2)nn1)(C(C)C)C(C)C ?
A) not satisfied

Q) composite z-score >= 0.3 for C[C@@]1([C@@H](NC(=O)c2ccc(-c3ccccc3)cc2)c2ccc(Cl)cc2)C[C@H]1C1CCCCC1 ?
A) satisfied

Q) composite z-score >= 0.3 for COC(=O)c1c(CC[C@@H](CO)NC(=O)NCCn2cc(C3(O)CCCC3)nn2)oc(C(C)=O)c1C(=O)OC ?
A) not satisfied

Q) composite z-score >= 0.3 for CC(C)C(O)C1C=CC2C(=O)NC(=O)C2N1Nc1ccc(Cl)cc1Cl (stereo unspecified) ?
A) satisfied

Q) composite z-score >= 0.3 for C=CCOC(=O)[C@H]1[C@@H]2C(=O)O[C@@H](c3ccccc3)[C@@H](c3ccccc3)N2[C@@H](c2ccc(OCCOC(=O)[C@H]3C[C@H]4C(=O)N[C@@H](CCCCNC(C)=O)C(=O)N4[C@H]3c3cccc(OCCO)c3)cc2)[C@]12C(=O)Nc1ccccc12 ?
A) not satisfied

Q) composite z-score >= 0.3 for NC(=O)NCC#Cc1ccc2c(c1)[C@]1(C(=O)N2)[C@H](c2ccc(O)cc2)N2[C@H](c3ccccc3)[C@H](c3ccccc3)OC(=O)[C@H]2[C@@H]1C(=O)O ?
A) satisfied

* * *

Record form. Attribute: composite z-score. Fill in for each entry.
- Experiment description: COS7 lysate on small-molecule microarray, probe aHis, 635 nm (AID 1123);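 also: z-score combines 667nm fluorescence intensity with signal-to-noise per printed compound spot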
- Settings: COS7 cell lysate, fluorescence, higher = more signal

Q) Identify measured composite z-score associated with [N-]=[N+]=NCc1ccccc1C[C@]1(C(N)=O)COC(c2ccc(OCCCO)cc2)=N1
A) 2.24

Q) Identify measured composite z-score associated with CC1(C)[C@@H]2CC(C(O)C3C=CC4C(=O)N(c5ccccc5)C(=O)C4N3Nc3ccc([N+](=O)[O-])cc3)=C[C@H]1C2 (stereo partly specified)
A) 2.8

Q) Identify measured composite z-score associated with COCCCNC(=O)[C@@]1(C)c2ccccc2C(=O)N(C(C)C)[C@H]1c1ccc(CO)cc1
A) 0.75

Q) Identify measured composite z-score associated with CCOC(=O)C[C@H]1[C@H](OC(=O)c2ccc(C(=O)c3ccccc3)cc2)[C@@H](NC(=O)c2ccccc2)c2cc(OCCCO)ccc2N1C(=O)c1ccc2ccccc2n1
A) 1.53

Q) Identify measured composite z-score associated with CC1(C)C2C=C(C(O)C3C=CC4C(=O)NC(=O)C4N3Nc3ccc(Cl)cc3Cl)C[C@@H]1C2 (stereo partly specified)
A) 1.24

Q) Identify measured composite z-score associated with COc1ccc(C(=O)Nc2ccc(CN3C(=O)[C@]4(O[C@H](CCO)[C@@H]([Si](C)(C)c5ccc(OC)cc5)[C@@H]4C)c4ccccc43)cc2)cc1
A) 0.417

Q) Identify measured composite z-score associated with C=CC1(C(=O)OC)CC=C(C(=O)OC)CC1 (stereo unspecified)
A) 0.732

Q) Identify measured composite z-score associated with Cc1ccc(S[C@]2(C(=O)O)CC(=O)N(C(C)C)[C@@H]2c2ccc(CO)cc2I)cc1
A) 1.99

Q) Identify measured composite z-score associated with C=CCOC(=O)[C@H]1[C@@H]2C(=O)O[C@@H](c3ccccc3)[C@@H](c3ccccc3)N2[C@@H](c2ccc(OCCOC(=O)[C@H]3C[C@H]4C(=O)N[C@@H](CCCC[N+](C)(C)C)C(=O)N4[C@H]3c3ccc(O)cc3)cc2)[C@]12C(=O)Nc1ccc(I)cc12
A) 0.502

Q) Identify measured composite z-score associated with CC(C)=CCCC(C)=CC(O)C1C=CC2C(=O)N(C)C(=O)C2N1Nc1ccccc1 (stereo unspecified)
A) 2.66

Q) Identify measured composite z-score associated with CC(C)C(CO)N1C(=O)[C@@H]2C3C(=O)OCCC/C=C\[C@H]3OC23C=CCN(CCN2CCOCC2)C(=O)[C@@H]13 (stereo partly specified)
A) -0.301

Q) Identify measured composite z-score associated with COc1cccc(-c2cccc(=O)o2)c1
A) 0.175

Q) Identify measured composite z-score associated with CCCC[C@@H]1C[C@H]1[C@@H](NC(=O)c1cccs1)c1ccc(-c2ccccc2)cc1
A) 0.874

Q) Identify measured composite z-score associated with CCOC(=O)C[C@H]1[C@H](OC(=O)c2ccc(-c3ccccc3)cc2)[C@@H](NC(=O)Cc2ccc(OC)cc2)c2cc(OCCCO)ccc2N1C(=O)c1ccccc1
A) 0.614

Q) Identify measured composite z-score associated with C=C(COC)C(=O)CC[C@@H](OC(C)=O)c1ccc(CO)o1
A) -0.137

Q) Identify measured composite z-score associated with C=CCC(OC(C)=O)[C@@H]1[C@@H](N(Cc2cccc3ccccc23)C(=O)c2ccc(-c3ccccc3)cc2)c2cc(OCCCO)ccc2N1C(=O)c1ccc2ccccc2c1 (stereo partly specified)
A) 0.735

Q) Identify measured composite z-score associated with C=C(C)[C@@H]1CC=C(C(O)C2C=CC3C(=O)N(c4ccccc4)C(=O)C3N2Nc2ccccc2)CC1 (stereo partly specified)
A) 2.84

Q) Identify measured composite z-score associated with O=C1C[C@@](C(=O)NCC(F)(F)F)(c2ccc([N+](=O)[O-])cc2)[C@@H](c2ccc(CO)cc2I)N1C1CCCCC1
A) 2.22

Q) Identify measured composite z-score associated with COC(=O)C(CC#Cc1ccc2c(c1)[C@]1(C(=O)N2)[C@H](c2ccc(OCCO)cc2)N2[C@H](c3ccccc3)[C@H](c3ccccc3)OC(=O)[C@H]2[C@@H]1C(=O)N1CCc2cc(OC)c(OC)cc2C1)C(=O)OC
A) 2.04

Q) Identify measured composite z-score associated with CCCCC(CC)C(O)C1C=CC2C(=O)N(Cc3ccccc3)C(=O)C2N1n1cnnc1 (stereo unspecified)
A) 0.262

Q) Identify measured composite z-score associated with C=C(COC)/C(=C/C[C@H](OC(C)=O)c1ccc(CO)o1)c1cc(C(=O)OC)ccc1OC
A) 0.107

Q) Identify measured composite z-score associated with O=C1O[C@H](c2ccccc2)[C@H](c2ccccc2)N2[C@H]1[C@@H](C(=O)N1CCCCCCC1)[C@]1(C(=O)Nc3ccc(C#CCCO)cc31)[C@H]2c1ccccc1OCCO
A) 5.54

Q) Identify measured composite z-score associated with CN(C)CCCCCCNC(=O)[C@@H]1C[C@@H]2C(=O)N[C@@H](Cc3ccccc3)C(=O)N2[C@@H]1c1ccc(O)cc1
A) 1.58

Q) Identify measured composite z-score associated with CC(C)OC(=O)C=C1C[C@@H](c2ccccn2)O[C@@H](c2ccccn2)O1
A) 0.407

Q) Identify measured composite z-score associated with COC(=O)C(CC#Cc1ccc2c(c1)[C@]1(C(=O)N2)[C@H](C(=O)Nc2nc3ccccc3s2)[C@H]2C(=O)O[C@H](c3ccccc3)[C@H](c3ccccc3)N2[C@@H]1c1ccc(O)cc1)C(=O)OC
A) 1.96

Q) Identify measured composite z-score associated with COc1ccc([Si](C)(C)[C@H]2[C@H](CCO)O[C@@]3(C(=O)N(Cc4ccc(N(C=O)c5ccccc5)cc4)c4ccccc43)[C@@H]2C)cc1
A) 0.407

* * *

- Subject of test: NADPH oxidase 4 (Homo sapiens) (UniProt Q9NPH5)
- Sequence (Q9NPH5 whole entry, looked up): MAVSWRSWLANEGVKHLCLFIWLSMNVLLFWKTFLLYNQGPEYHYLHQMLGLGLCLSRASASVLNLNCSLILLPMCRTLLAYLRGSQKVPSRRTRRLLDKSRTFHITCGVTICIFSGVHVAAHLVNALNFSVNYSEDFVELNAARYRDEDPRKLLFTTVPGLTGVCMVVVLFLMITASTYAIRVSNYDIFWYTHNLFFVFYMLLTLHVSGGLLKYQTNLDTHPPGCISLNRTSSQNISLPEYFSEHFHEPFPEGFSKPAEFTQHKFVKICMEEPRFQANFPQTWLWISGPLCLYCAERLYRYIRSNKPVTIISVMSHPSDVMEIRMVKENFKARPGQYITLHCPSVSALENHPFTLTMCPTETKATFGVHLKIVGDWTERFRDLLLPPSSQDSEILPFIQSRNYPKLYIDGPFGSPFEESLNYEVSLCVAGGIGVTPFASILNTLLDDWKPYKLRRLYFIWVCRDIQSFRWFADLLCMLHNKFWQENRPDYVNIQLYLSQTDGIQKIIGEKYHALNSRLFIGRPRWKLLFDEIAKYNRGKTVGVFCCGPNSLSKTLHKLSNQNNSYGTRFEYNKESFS
- Experiment description: NOX4-dependent H2O2 signal modulators, primary screen, NOX inhibitor project, cell-based, HEK293-NOX4, tetracycline-induced, Amplex Red fluorescence (AID 1160)
- Settings: 45 min, higher = more signal, called active from +8 up or from −8 down
Reported endpoint: z-score
Please reply with the number alone, leaving off any unit.

Q) Identify measured z-score associated with Cc1ccc(S[C@]2(C(=O)NCCCN(C)C)CC(=O)N(Cc3cc(C(F)(F)F)cc(C(F)(F)F)c3)[C@@H]2c2ccc(CO)cc2I)cc1
A) -1.25

Q) Identify measured z-score associated with CCOC(=O)C[C@H]1[C@H](OC(=O)c2ccc(-c3ccccc3)cc2)[C@@H](NC(=O)Cc2ccc(OC)cc2)c2cc(OCCCO)ccc2N1C(=O)c1ccccc1
A) -1.72

Q) Identify measured z-score associated with O=C(NCCO)C1=C[C@H](Oc2ccccc2I)[C@@H](O)[C@H](N(Cc2ccco2)C(=O)Cc2ccccc2)C1
A) 0.254

Q) Identify measured z-score associated with O=C1O[C@H](c2ccccc2)[C@H](c2ccccc2)N2[C@H]1[C@@H](C(=O)N1CCCCCCC1)[C@]1(C(=O)Nc3ccc(C#CCCO)cc31)[C@H]2c1ccccc1OCCO
A) 0.959

Q) Identify measured z-score associated with CCCCCN1CC=CC23O[C@@H]4/C=C\CCC(C)OC(=O)C4[C@H]2C(=O)N(C(C)CO)[C@@H]3C1=O (some centres undefined)
A) -0.2

Q) Identify measured z-score associated with CN1C(=O)C2C=CC(C(O)C3CC=CCC3)N(N(c3ccccc3)c3ccccc3)C2C1=O (centres undefined)
A) 0.21

Q) Identify measured z-score associated with C=CCOC(=O)[C@H]1[C@@H]2C(=O)O[C@@H](c3ccccc3)[C@@H](c3ccccc3)N2[C@@H](c2ccc(OCCOC(=O)[C@H]3C[C@H]4C(=O)N[C@@H](CCCCNC(C)=O)C(=O)N4[C@H]3c3cccc(OCCO)c3)cc2)[C@]12C(=O)Nc1ccccc12
A) 1.93

Q) Identify measured z-score associated with CC1CC/C=C\[C@H]2OC34C=CCN(C(C)(C)C)C(=O)[C@H]3N(CCO)C(=O)[C@@H]4C2C(=O)O1 (some centres undefined)
A) 0.126

Q) Identify measured z-score associated with COc1cc(NN2C(C(O)c3ccco3)C=CC3C(=O)N(c4ccccc4)C(=O)C32)cc(OC)c1OC (centres undefined)
A) -4.23

Q) Identify measured z-score associated with CC1CC/C=C\[C@H]2OC34C=CCN(Cc5ccccc5)C(=O)[C@H]3N(CCCO)C(=O)[C@@H]4C2C(=O)O1 (some centres undefined)
A) 0.366

Q) Identify measured z-score associated with C=C(CC1([C@@H](NP(=O)(c2ccccc2)c2ccccc2)[C@H]2C[C@@H]2CCCC)CC1)c1ccccc1
A) -0.988

Q) Identify measured z-score associated with [N-]=[N+]=Nc1ccccc1[C@@H]1OC(c2ccc(OCCCO)cc2)=N[C@]1(Cc1ccccc1)C(=O)N1CCOCC1
A) -0.36

Q) Identify measured z-score associated with CCCC[C@H]1OB(O)C[C@H]2C1=C(COC)Cn1c(=O)n(-c3ccccc3)c(=O)n12
A) 0.317

Q) Identify measured z-score associated with C=CC(=C)[C@H]1Oc2ccccc2S(=O)(=O)N2CCC[C@@H]12
A) -1.04

Q) Identify measured z-score associated with COc1ccc(C(O)C2C=CC3C(=O)N(Cc4ccccc4)C(=O)C3N2n2cnnc2)cc1OCc1ccccc1 (centres undefined)
A) -0.079

Q) Identify measured z-score associated with CCCCCN1CC=CC23O[C@@H]4C=CCCOC(=O)C4[C@H]2C(=O)N(CCCCCO)[C@@H]3C1=O (some centres undefined)
A) 0.228

Q) Identify measured z-score associated with COC(=O)C(CC#Cc1ccc2c(c1)[C@]1(C(=O)N2)[C@H](C(=O)Nc2nc3ccccc3s2)[C@H]2C(=O)O[C@H](c3ccccc3)[C@H](c3ccccc3)N2[C@@H]1c1ccc(O)cc1)C(=O)OC
A) 0.602

Q) Identify measured z-score associated with C=C[C@@H](COC(=O)OC(C)(C)C)N(Cc1ccc(OC)cc1)S(=O)(=O)c1ccc(Br)cc1
A) 0.525

Q) Identify measured z-score associated with C=CCN1C(=O)[C@@]2(Cc3ccccc31)N=C(c1ccc(OCCCO)cc1)O[C@H]2c1ccccc1
A) -0.253
